System: BJ cells
test_summary: Cell cycle assay in BJ cells
Assay type: cell-based, human
settings: 200 nM, 48 hours, relative to untreated control
In the oligonucleotide strings, read from the 5' end, every base follows the letter of its sugar. An asterisk marks phosphorothioate; unmarked linkages are phosphodiester. Other units and linkages are bracketed, terminal groups are in braces. A string of capitals states the bases alone. e = 2'-O-(2-methoxyethyl) (MOE); [5mC] = 5-methylcytosine; d = 2'-deoxy (DNA)
readout_type: % cells in cell cycle phase aneuploid (%)
Enter your answer as a number in %; do not include the unit.

Param readout= % cells in cell cycle phase aneuploid; system= BJ cells; entry= 327905 (antisense e[5mC]*eA*eG*eA*e[5mC]*eT*e[5mC]*e[5mC]*eG*eG*eT*eG*eG*eA*eA*eT*eG*eA*eA*eG*eG*eA) [compound 327905] ; returns value. 102

Param readout= % cells in cell cycle phase aneuploid; system= BJ cells; entry= 328744 (antisense e[5mC]*eG*eG*eA*eT*d[5mC]*d[5mC]*dT*dG*dT*dT*dA*d[5mC]*d[5mC]*dT*e[5mC]*eA*e[5mC]*e[5mC]*eA) [compound 328744] ; returns value. 158

Param readout= % cells in cell cycle phase aneuploid; system= BJ cells; entry= 328403 (antisense eA*eG*eG*e[5mC]*e[5mC]*dT*dA*dT*dT*d[5mC]*d[5mC]*dT*dG*dT*dA*eG*e[5mC]*eA*eA*eA) [compound 328403] ; returns value. 114
